experiment: qHTS Assay for Lipid Storage Modulators (AID 1519); conditions: Drosophila S3 cells, BODIPY lipid droplet/cell ratio, laser cytometry; measured here: lipid channel max response; cells loaded with oleic acid
Results filed as inconclusive are left out.
MEASURED_METRIC: max response (%)

> print(dat)
                                    molecule  measured.metric  measured.number
 1  O=C(NCCNCC(O)COc1ccc(O)cc1)N1CCOCC1 (stereo not given)     max response            -30.3
 2  COc1cc(S(C)=O)ccc1-c1nc2ncccc2[nH]1 (stereo not given)     max response            -18.4
 3  CNC(=O)c1c(I)c(C(=O)NCC(=O)Nc2c(I)c(C(=O)O)c(I)c(C(=O)NCCO)c2I)c(I)c(N(C)C(C)=O)c1I     max response            -10.2
 4                                  Nc1nccs1     max response             14.6
 5            Oc1ccc(/C=C/c2cc(O)cc(O)c2)cc1     max response             2.31
 6          O=C(O)CCC(=O)c1ccc(-c2ccccc2)cc1     max response            -2.43
 7  CC(=O)Oc1cccc2c1C(=O)c1c(OC(C)=O)cc(C(=O)O)cc1C2=O     max response             41.9
 8  CCCc1nc(C(C)(C)O)c(C(=O)OCc2oc(=O)oc2C)n1Cc1ccc(-c2ccccc2-c2nn[nH]n2)cc1     max response             29.3
 9  CC(C)c1nc(N(C)S(C)(=O)=O)nc(-c2ccc(F)cc2)c1/C=C/C(O)CC(O)CC(=O)O (stereo not given)     max response             9.26
10  O=C(CCCCCCCCCCCCC1CCCC1)Nc1ccc(S(=O)(=O)c2ccc(NC(=O)CCCCCCCCCCCCC3CCCC3)cc2)cc1     max response             25.4

---

experiment: P-glycoprotein substrates identified in KB-8-5-11 adenocarcinoma cell line, qHTS therapeutic library screen (AID 1346987); conditions: KB-8-5-11 (P-gp overexpressing) viability, CellTiter-Glo, 72 h; series mostly up to 44.5 µM; note: nearly all actives have a fitted effect of over 65% in size
Records with an inconclusive call do not appear. The source made the active and inactive calls. The call rests on the fitted dose curve; in most records, active means well fitted inhibition curve with a large enough effect; inconclusive means small, poorly fitted or top-dose-only effect; inactive means flat fitted curve, though single readings scatter.
Outcome codes: True for active, False for inactive

> print(dat)
                                   molecule  group.label
1  c1ccc2c(c1)OCC(CN1CCCCC1)O2 (stereo unspecified)        False
2  O=C(OC1C[C@@H]2CC3C[C@H](C1)N2CC3=O)c1c[nH]c2ccccc12 (stereo partly specified)        False
3  COc1ccc(-c2noc(CC(=O)O)c2-c2ccc(OC)cc2)cc1        False
4  CC(O)[C@H]1CC[C@H]2[C@@H]3CC[C@@H]4C[C@@H](O)CC[C@]4(C)[C@H]3CC[C@]12C (stereo partly specified)         True
5         C[C@@](Cc1ccc(O)c(O)c1)(NN)C(=O)O        False
6                       O=P(O)(O)OP(=O)(O)O        False

---

system: N140; assay: qHTS profiling for inhibitors of Plasmodium falciparum proliferation (AID 504749); note: nearly all actives have a fitted effect of over 60% in size; settings: P. falciparum in erythrocytes, SYBR Green DNA, 72 h; series mostly up to 28.7 µM
Results filed as inconclusive are left out. Calls of active or inactive are those of the source. The call rests on the fitted dose curve; in most records, active means well fitted inhibition curve with a large enough effect; inconclusive means small, poorly fitted or top-dose-only effect; inactive means flat fitted curve, though single readings scatter.
Outcome codes: active, inactive

MOLECULE	SYSTEM_NAME	GROUP_LABEL
O=C(O)COc1ccc(CCNS(=O)(=O)c2ccccc2)s1	N140	inactive
CCCc1ccc(C(=O)O)cc1	N140	inactive
CC(C)(C)CC(C)(C)c1cc(Cc2cc(C(C)(C)CC(C)(C)C)cc(-n3nc4ccccc4n3)c2O)c(O)c(-n2nc3ccccc3n2)c1	N140	inactive
Nc1nccs1	N140	inactive
O=C1c2ccccc2C(=O)C1c1ccc(F)cc1	N140	inactive
CN=C1C=CC(=C(c2ccc(N(C)C)cc2)c2ccc(N(C)C)cc2)C=C1	N140	active
C=C(C)C1CC=C(C)CC1 (stereo unspecified)	N140	inactive
O=C(O)/C=C/C(=O)Nc1ccc(S(=O)(=O)Nc2nccs2)cc1	N140	inactive
CCC(=O)c1ccc2c(c1)N(CCCN1CCN(CCO)CC1)c1ccccc1S2	N140	active
NC(N)=NCC1COc2ccccc2O1 (stereo unspecified)	N140	inactive
C[C@H]1O[C@@H](O[C@H]2[C@@H](O)C[C@H](O[C@H]3[C@@H](O)C[C@H](O[C@H]4CC[C@@]5(C)[C@H](CC[C@@H]6[C@@H]5C[C@@H](O)[C@]5(C)[C@@H](C7=CC(=O)OC7)CC[C@]65O)C4)O[C@@H]3C)O[C@@H]2C)C[C@H](O)[C@@H]1O	N140	inactive
